Molecular target: hMC5-R (human) (UniProt P33032)
Sequence (P33032 whole entry): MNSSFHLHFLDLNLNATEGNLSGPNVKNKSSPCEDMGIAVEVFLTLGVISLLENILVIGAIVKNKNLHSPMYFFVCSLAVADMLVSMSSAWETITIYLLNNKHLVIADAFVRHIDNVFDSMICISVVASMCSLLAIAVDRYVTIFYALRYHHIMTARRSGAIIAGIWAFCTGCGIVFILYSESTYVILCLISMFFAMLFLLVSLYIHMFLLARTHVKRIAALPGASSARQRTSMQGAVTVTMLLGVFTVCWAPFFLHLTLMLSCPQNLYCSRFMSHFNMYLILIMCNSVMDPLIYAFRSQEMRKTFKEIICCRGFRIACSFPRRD
Assay: competition with [125I]-NDP-α-MSH, CHO-K1 membranes
Bridge positions count the residues as written; N and C are the ends. Square brackets hold non-standard residues; d marks the D form. Ends that are not written are not given here. Bip = N[C@@H](Cc1ccc(-c2ccccc2)cc1)C(=O)O; 1Nal = N[C@@H](Cc1cccc2ccccc12)C(=O)O; d2Nal = N[C@H](Cc1ccc2ccccc2c1)C(=O)O; hArg = N=C(N)NCCCC[C@H](N)C(=O)O; Pen = CC(C)(S)[C@H](N)C(=O)O; Nle = CCCC[C@H](N)C(=O)O; GABA = NCCCC(=O)O; βAla = NCCC(=O)O
Metric Name: Ki (nM)
I only need the number, in nM, no unit after it.

Q: So what does the record say about Ki for Ac-[Nle]C[dA]H[d2Nal]R[1Nal]C-NH2 (disulfide 2-8; SMILES CCCC[C@H](NC(C)=O)C(=O)N[C@H]1CSSC[C@@H](C(N)=O)NC(=O)[C@H](Cc2cccc3ccccc23)NC(=O)[C@H](CCCNC(=N)N)NC(=O)[C@@H](Cc2ccc3ccccc3c2)NC(=O)[C@H](Cc2c[nH]cn2)NC(=O)[C@@H](C)NC1=O) [Ac-Nle-c(Cys-D-Ala-His-D-2-Nal-Arg-1-Nal-Cys)-NH2] ?
Ans: 1660

Q: Also need Ac-[Nle][Pen]H[dF]RW[GABA]C-NH2 (disulfide 2-8; SMILES CCCC[C@H](NC(C)=O)C(=O)N[C@@H]1C(=O)N[C@@H](Cc2c[nH]cn2)C(=O)N[C@H](Cc2ccccc2)C(=O)N[C@@H](CCCNC(=N)N)C(=O)N[C@@H](Cc2c[nH]c3ccccc23)C(=O)NCCCC(=O)N[C@H](C(N)=O)CSSC1(C)C) [Ac-Nle-c(Pen-His-D-Phe-Arg-Trp-Gaba-Cys)-NH2] , thanks.
Ans: 2.56

Q: Now consider [dF]CH[d(Et)Tyr][hArg][Bip][βAla][dC]T-NH2 (disulfide 2-8) [D-Phe-c(Cys-His-D-(Et)Tyr-hArg-Bip-β-Ala-D-Cys)-Thr-NH2] .
Ans: 38

Q: For [dF]CH[d(Et)Tyr]RW[βAla][dC]T-NH2 (disulfide 2-8) [D-Phe-c(Cys-His-D-(Et)Tyr-Arg-Trp-β-Ala-D-Cys)-Thr-NH2] then?
Ans: 2.9
